Tested on: HIV-1
CONDITION_INFO: 64 μM; 1 minute irradiation; starting titer approximately 5 logs (Table 10)
Entries annotated with measured HIV Log Kill

Field: example entries. Status: answers known.
| COMPOUND | HIV Log Kill |
| --- | --- |
| Cc1oc2c(C)c3oc(=O)cc(C)c3cc2c1CNCCN [Compound 1] | 2.1 log |
| Cc1oc2c(C)c3oc(=O)cc(C)c3cc2c1COCCN [Compound 2] | >4.5 log |
| Cc1oc2c(C)c3oc(=O)cc(C)c3cc2c1COCCOCCN [Compound 7] | 3.5 log |

Given the entry Cc1oc2c(C)c3oc(=O)cc(C)c3cc2c1CCN [Compound 3] , report its measured HIV Log Kill.
>3.8 log

// same read-out, input: Cc1oc2c(C)c3oc(=O)cc(C)c3cc2c1COCCOCCNCCCCN [Compound 8]
3.7 log

###

Test system: p-selectin (GMP140)
ASSAY_NOTES: GMP-140 (p-selectin) expression on platelets, flow cytometry with CD62
Assay type: cell-based, human
CONDITION_INFO: 100 μM compound, 5 Joules/cm^2, 5 days storage; FIGS. 21C-24C
PROPERTY: GMP-140 expression, treated sample (PCD) against day 5 untreated control (in words)

| COMPOUND | MEASURED_VALUE |
| --- | --- |
| Cc1oc2c(C)c3oc(=O)cc(C)c3cc2c1CNCCCCN [Compound 6] | little or no difference |
| Cc1cc(=O)oc2c(C)c3oc(CNCCCCN)c(C)c3cc12 [Compound 17] | little or no difference |
| Cc1oc2c(C)c3oc(=O)cc(C)c3cc2c1COCCN [Compound 2] | little or no difference |

###

Tested on: Salmonella typhimurium tester strains
ASSAY_NOTES: Ames Salmonella dark mutagenicity test, overall assessment
Type: cell-based
CONDITION_INFO: two-fold or greater increase in revertants above background and dose dependence
PROPERTY: mutagenic response in the Ames assay (in words)

| CHEMICAL_STRING | MEASURED_VALUE |
| --- | --- |
| Cc1oc2c(C)c3oc(=O)cc(C)c3cc2c1CCN | no mutagenicity |
| Cc1oc2c(C)c3oc(=O)cc(C)c3cc2c1COCCCN | no mutagenicity |

###

Entries annotated with measured revertant colonies per plate
Tested on: Salmonella tester strain TA1538
CONDITION_INFO: TA1538 + S9; 10 μg/plate
Form field (numeric): enter value without unit.

Field: example entries. Status: answers known.
| CHEMICAL_STRING | revertant colonies per plate |
| --- | --- |
| Cc1oc2c(C)c3oc(=O)cc(C)c3cc2c1COCCCN | −2 |
| Cc1oc2c(C)c3oc(=O)cc(C)c3cc2c1CNCCN | 22 |
| Cc1oc2c(C)c3oc(=O)cc(C)c3cc2c1CCN | 9 |

Given the entry Cc1oc2c(C)c3oc(=O)cc(C)c3cc2c1COCCN , report its measured revertant colonies per plate.
4

###

System: R17 bacteriophage
ASSAY_NOTES: R17 bacteriophage inactivation assay, varying compound concentration
Format: cell-based
CONDITION_INFO: 16 μM; starting titer approx. 7.2 logs; 1 minute irradiation (Table 7)
Entries annotated with measured R17 Log Kill
Give the number; log is assumed, so skip it.

| MOLECULE | SYSTEM_TESTED | UNIT_ABBREV | MEASURED_VALUE |
| --- | --- | --- | --- |
| Cc1oc2c(C)c3oc(=O)cc(C)c3cc2c1CNCCN [Compound 1] | R17 bacteriophage | log | 2.8 |

# context switch: different molecule, same R17 Log Kill
Given the entry Cc1oc2c(C)c3oc(=O)cc(C)c3cc2c1CN [AMT, 4′-Aminomethyl-4,5′,8-trimethylpsoralen, reference compound] , report its measured R17 Log Kill.
4.6

###

System: Salmonella tester strain TA100
CONDITION_INFO: TA100 − S9; 5 μg/plate
PROPERTY: revertant colonies per plate

Field: example entries. Status: answers known.
| COMPOUND | MEASURED_VALUE |
| --- | --- |
| Cc1oc2c(C)c3oc(=O)cc(C)c3cc2c1CCN [Compound 3] | 47 |
| Cc1oc2c(C)c3oc(=O)cc(C)c3cc2c1CNCCN [Compound 1] | 292 |
| Cc1oc2c(C)c3oc(=O)cc(C)c3cc2c1COCCN [Compound 2] | 103 |

# context switch: different compound, same revertant colonies per plate
Given the entry Cc1oc2c(C)c3oc(=O)cc(C)c3cc2c1COCCCN [Compound 4] , report its measured revertant colonies per plate.
−41

###

Tested on: Salmonella tester strain TA100
CONDITION_INFO: TA100 + S9; 5 μg/plate
Entries annotated with measured revertant colonies per plate
Form field (numeric): enter value without unit.

Given the entry Cc1oc2c(C)c3oc(=O)cc(C)c3cc2c1COCCCN [Compound 4] , report its measured revertant colonies per plate.
−10

// same read-out, input: Cc1oc2c(C)c3oc(=O)cc(C)c3cc2c1CNCCN [Compound 1]
−24

// same read-out, input: Cc1oc2c(C)c3oc(=O)cc(C)c3cc2c1CCN [Compound 3]
−19

// same read-out, input: Cc1oc2c(C)c3oc(=O)cc(C)c3cc2c1COCCN [Compound 2]
−18

###

Test system: Salmonella tester strain TA98
ASSAY_NOTES: Ames test, strain TA98
CONDITION_INFO: TA98 − S9; 10 μg/plate
Entries annotated with measured revertant colonies per plate
Form field (numeric): enter value without unit.

Field: example entries. Status: answers known.
| COMPOUND | revertant colonies per plate |
| --- | --- |
| Nc1c2ccccc2nc2ccccc12 [9-Amino-acridine, reference compound] | 284 |
| Cc1cc(=O)oc2c(C)c3oc(COCCN)c(C)c3cc12 [Compound 18] | 21 |
| Cc1oc2c(C)c3oc(=O)cc(C)c3cc2c1CN [AMT, 4′-Aminomethyl-4,5′,8-trimethylpsoralen, reference compound] | 20 |

Given the entry Cc1oc2c(C)c3oc(=O)cc(C)c3cc2c1COCCN [Compound 2] , report its measured revertant colonies per plate.
28

###

Tested on: R17 bacteriophage
ASSAY_NOTES: R17 bacteriophage inactivation assay, varying compound concentration
Assay type: cell-based
CONDITION_INFO: 16 μM; starting titer approx. 7.1 logs; 1 minute irradiation = 1.2 J/cm^2 (Table 8)
Entries annotated with measured R17 Log Kill
Give the number; log is assumed, so skip it.

| MOLECULE | MEASURED_VALUE |
| --- | --- |
| Cc1oc2c(C)c3oc(=O)cc(C)c3cc2c1CNCCCN | 5.6 |

Given the entry Cc1oc2c(C)c3oc(=O)cc(C)c3cc2c1CN [AMT, 4′-Aminomethyl-4,5′,8-trimethylpsoralen, reference compound] , report its measured R17 Log Kill.
4.5

// same read-out, input: Cc1oc2c(C)c3oc(=O)cc(C)c3cc2c1COCCCN
2.3

###

Tested on: HIV-1
CONDITION_INFO: 64 μM; 1 minute irradiation; starting titer approximately 5 logs (Table 10)
PROPERTY: HIV Log Kill

Field: example entries. Status: answers known.
| CHEMICAL_STRING | MEASURED_VALUE |
| --- | --- |
| Cc1oc2c(C)c3oc(=O)cc(C)c3cc2c1CNCCCN | >2.6 log |
| Cc1oc2c(C)c3oc(=O)cc(C)c3cc2c1COCCCN | >3.6 log |

# context switch: different compound, same HIV Log Kill
Given the entry Cc1oc2c(C)c3oc(=O)cc(C)c3cc2c1CNCCCCN , report its measured HIV Log Kill.
>3.8 log
